molecular target: BRD4 (Homo sapiens); construct: residues 42–168, BRD4-BD1 (N-terminal bromodomain); assay: X-ray crystal structure at […] Å (soaked crystals); IC50 from AlphaScreen
RESULT TYPE: IC50

COMPOUND	STUDY TARGET	MEASURED RESULT
CC(=O)N(C)C [DMA, N,N-Dimethylacetamide]	BRD4 (Homo sapiens)	6 mM
